Entry source: ChEMBL document CHEMBL2016464

Test: cells
Details: Homo sapiens, HEK-293T, 14 h
Description: Inhibition of TNFalpha-induced NFkappaB activation in HEK293T cells after 14 hrs by luciferase reporter gene assay
RESULT TYPE: IC50

Tell me its IC50 given `Nc1nc2ccccc2n1CCC(=O)c1ccc(Cl)cc1` as the entry.
> 20 µM

Item CCC(=O)N1c2ccc(S(=O)(=O)N3CCN(c4ccc([N+](=O)[O-])cc4)CC3)cc2CC1C (racemic) : provide IC50
4.92 µM

---

Test: Metabolic stability in human liver microsomes assessed as compound remaining at 1 uM preincubated for 10 mins measured after 60 mins
Assay type: ADME, Microsome
Conditions: read-out: Stability
RESULT TYPE: remaining at 1 h, 1 µM
Answer by giving the amount and then stating its unit.

Tell us which remaining at 1 h, 1 µM value is on record for `Cc1ccc(S(=O)(=O)n2c(N)nc3ccccc32)cc1`
41.8%

---

Experiment: cells
Settings: Homo sapiens, HEK-293T, 14 h
pIC50: −log10 of the molar value.
A collection of compounds and their measured pIC50

Input `CN(C)c1ccc(NC(=O)c2ccc(CN3CCc4ccccc43)cc2)cc1` , output reported pIC50.
< 4.70

Supply reported pIC50 belonging to this compound: `O=C(Nc1ccc(Cl)cc1)c1ccc(CCN2CCc3ccccc3C2)cc1`
< 4.70

Item `O=C(Nc1ccc(F)cc1)c1ccc(CN2CCCCC2)cc1` : provide pIC50
< 4.70

---
Report pIC50 for CC(=O)N1c2ccc(S(=O)(=O)N3CCN(c4ccc(C)cc4)CC3)cc2CC1C (racemic)
5.36

Tell us which pIC50 value is on record for CCC(=O)N1c2ccc(S(=O)(=O)N3CCN(c4ccc(C(C)=O)cc4)CC3)cc2CC1C (racemic)
5.79

Using the record for `CCC(=O)N1CCc2cc(S(=O)(=O)N3CCN(c4ccc(Cl)cc4)CC3)ccc21` , state its measured pIC50.
< 4.70

Tell us which pIC50 value is on record for `Cc1ccc(S(=O)(=O)n2c(S)nc3ccc(C)cc32)cc1`
< 4.70

Item `CSc1ccc(NC(=O)c2ccc(CN3CCCCC3)cc2)cc1` : provide pIC50
< 4.70

Please indicate pIC50 recorded for `Cc1ccc(NC(=O)c2ccc(CN3CCc4ccccc4C3)cc2)cc1`
< 4.70

State its pIC50 for this compound: CC1Cc2cc(S(=O)(=O)N3CCN(c4ccccc4)CC3)ccc2N1C(=O)C1CC1 (racemic)
4.82

---

Assay: Plasma concentration in mouse at 15 mg/kg, ip at 20 mins
RESULT TYPE: concentration at 20 min (ng/mL)
Report the figure in ng/mL without appending any unit label.

Fill in reported concentration at 20 min for this entry: `Cc1ccc(S(=O)(=O)n2c(N)nc3ccccc32)cc1`
1200

---

Assay: Plasma concentration in mouse at 30 mg/kg, ip at 120 mins
RESULT TYPE: concentration at 2 h

Report concentration at 2 h for `Cc1ccc(S(=O)(=O)n2c(N)nc3ccccc32)cc1`
< 500 ng/mL

---

Target: Nucleotide-binding oligomerization domain-containing protein 2 (Homo sapiens, UniProt Q9HC29)
Sequence (Q9HC29 whole entry, the tested form may be a part): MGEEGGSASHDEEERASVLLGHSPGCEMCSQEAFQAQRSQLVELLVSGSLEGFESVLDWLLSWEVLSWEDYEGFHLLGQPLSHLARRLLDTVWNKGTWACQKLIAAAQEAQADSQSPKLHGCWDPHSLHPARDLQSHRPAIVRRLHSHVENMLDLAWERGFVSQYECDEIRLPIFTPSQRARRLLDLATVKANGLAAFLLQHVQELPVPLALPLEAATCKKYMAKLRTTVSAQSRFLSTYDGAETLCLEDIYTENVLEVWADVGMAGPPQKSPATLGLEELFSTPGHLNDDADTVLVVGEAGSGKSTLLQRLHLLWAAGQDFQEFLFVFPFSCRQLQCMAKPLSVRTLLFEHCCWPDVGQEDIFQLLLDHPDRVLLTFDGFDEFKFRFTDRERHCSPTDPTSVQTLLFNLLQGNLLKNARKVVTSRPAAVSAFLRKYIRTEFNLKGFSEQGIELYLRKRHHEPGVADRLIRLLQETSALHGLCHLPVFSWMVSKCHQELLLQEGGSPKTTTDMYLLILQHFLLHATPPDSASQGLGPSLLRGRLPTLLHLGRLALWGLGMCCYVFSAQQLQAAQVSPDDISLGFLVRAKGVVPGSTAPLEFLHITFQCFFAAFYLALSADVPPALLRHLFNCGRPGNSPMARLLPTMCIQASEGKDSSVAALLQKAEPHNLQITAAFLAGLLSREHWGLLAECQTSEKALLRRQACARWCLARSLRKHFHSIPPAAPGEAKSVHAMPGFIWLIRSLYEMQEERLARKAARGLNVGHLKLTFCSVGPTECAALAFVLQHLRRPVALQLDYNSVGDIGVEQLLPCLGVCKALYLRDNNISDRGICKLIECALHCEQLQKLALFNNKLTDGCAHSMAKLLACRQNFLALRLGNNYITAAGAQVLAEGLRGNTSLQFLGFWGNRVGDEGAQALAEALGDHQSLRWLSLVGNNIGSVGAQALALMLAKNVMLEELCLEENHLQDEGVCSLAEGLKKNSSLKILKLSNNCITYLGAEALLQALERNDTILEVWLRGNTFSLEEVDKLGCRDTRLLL
Entries and their IC50 values follow.
Give your result in µM as a bare value.

Answered examples (2):
Supply IC50 value. Item: CCC(=O)N1c2ccc(S(=O)(=O)N3CCN(c4ccc(C(C)=O)cc4)CC3)cc2CC1C (racemic)
1.58

For the compound CC(=O)N1c2ccc(S(=O)(=O)N3CCN(c4ccc(C)cc4)CC3)cc2CC1C (racemic) , give its measured IC50 value.
3.45

Further cases:
Provide one value: measured IC50 of CCC(=O)N1c2ccc(S(=O)(=O)N3CCN(c4ccc(Cl)cc4)CC3)cc2CC1C (racemic)
0.6

---

Test: Plasma protein binding in mouse at 1 uM after 4 hrs
Assay type: ADME, cell-free
Conditions: read-out: PPB (converted)
RESULT TYPE: fraction unbound at 4 h, 1 µM

Item `Cc1ccc(S(=O)(=O)n2c(N)nc3ccccc32)cc1` : provide fraction unbound at 4 h, 1 µM
0.05

---

Assay: Plasma protein binding in human at 10 uM after 4 hrs
Assay type: ADME, cell-free
Conditions: read-out: PPB (converted)
RESULT TYPE: fraction unbound at 4 h, 10 µM
Field format: numeric only.

Return reported fraction unbound at 4 h, 10 µM. Input compound: `Cc1ccc(S(=O)(=O)n2c(N)nc3ccccc32)cc1`
0.023

---

Assay: Metabolic stability in mouse liver microsomes assessed as compound remaining at 1 uM preincubated for 10 mins measured after 60 mins
Format: ADME, Microsome
Settings: read-out: Stability
RESULT TYPE: remaining at 1 h, 1 µM
Please answer using a numeric value trailed by its unit.

Respond only with remaining at 1 h, 1 µM recorded for `Cc1ccc(S(=O)(=O)n2c(N)nc3ccccc32)cc1`
0.8%

---

Biological target: Nucleotide-binding oligomerization domain-containing protein 2 (Homo sapiens, UniProt Q9HC29)
Reported pIC50 values for the following compounds.
// pIC50 is dimensionless: -log10 of concentration (M)

Examples from the recorded data:
Annotate the compound `COc1ccc(NC(=O)c2ccc(CN3CCc4ccccc4C3)cc2)cc1` with its measured pIC50.
6.11

Answer with the recorded pIC50 for the compound listed here: `CCOc1ccc(NC(=O)c2ccc(CN3CCc4ccccc4C3)cc2)cc1`
6.24

Give pIC50 for CC(=O)c1ccc(N2CCN(S(=O)(=O)c3ccc4c(c3)CC(C)N4C(C)=O)CC2)cc1 (racemic)
5.43

Give reported pIC50 value for CC1Cc2cc(S(=O)(=O)N3CCN(c4ccccc4)CC3)ccc2N1C(=O)C1CC1 (racemic)
4.76

Given the compound `O=C(Nc1ccc(F)cc1)c1ccc(CN2CCc3ccccc3C2)cc1` , write its reported pIC50.
5.73

Turning now to a further compound:
Kindly indicate its recorded pIC50. Item: CC(=O)N1c2ccc(S(=O)(=O)N3CCN(c4ccccc4)CC3)cc2CC1C (racemic)
5.08

---

Assay: cells
Conditions: Homo sapiens, HEK-293T, 14 h
RESULT TYPE: IC50 (µM)
Response body: numeric value in µM, unit text excluded.

Quickly give me recorded IC50 for CC1Cc2cc(S(=O)(=O)N3CCN(c4ccc(Cl)cc4)CC3)ccc2N1C(=O)C1CC1 (racemic)
7.26

Attention now turns to another entry.
Give me measured IC50, please, for this molecule: CC(=O)N1c2ccc(S(=O)(=O)N3CCN(c4ccc([N+](=O)[O-])cc4)CC3)cc2CC1C (racemic)
3.27

---

Assay: Plasma protein binding in mouse at 10 uM after 4 hrs
Format: ADME, cell-free
Conditions: read-out: PPB (converted)
RESULT TYPE: fraction unbound at 4 h, 10 µM
Respond with the number and no other words.

Note down fraction unbound at 4 h, 10 µM recorded for `Cc1ccc(S(=O)(=O)n2c(N)nc3ccccc32)cc1`
0.045

---

Test: Metabolic stability in human plasma assessed as compound remaining at 1 uM after 180 mins
Type: ADME, cell-free
Settings: read-out: Stability
RESULT TYPE: remaining at 3 h, 1 µM (%)
The figure you give is taken to be in %; do not add the unit.

Dear colleague, please send me the reported remaining at 3 h, 1 µM for `Cc1ccc(S(=O)(=O)n2c(N)nc3ccccc32)cc1` when you can.
100

---

Experiment: Metabolic stability in mouse plasma assessed as compound remaining at 1 uM after 180 mins
Assay type: ADME, cell-free
Conditions: read-out: Stability
RESULT TYPE: remaining at 3 h, 1 µM (%)
# unit: % | format: bare number

In one line, give reported remaining at 3 h, 1 µM of the entry `Cc1ccc(S(=O)(=O)n2c(N)nc3ccccc32)cc1` .
100

---

Experiment: cells
Conditions: Homo sapiens, HEK-293T, 14 h
RESULT TYPE: IC50 (µM)
Unit µM implied. Number only.

Study these solved cases before continuing.
Give the reported value of IC50 for this record: `CCOC(=O)c1ccc(NC(=O)c2ccc(CN3CCc4ccccc4C3)cc2)cc1`
0.14

Give a short answer stating reported IC50 for COc1ccc(N2CCN(S(=O)(=O)c3ccc4c(c3)CC(C)N4C(C)=O)CC2)cc1 (racemic) .
4.3

Report measured IC50; entry is CC1Cc2cc(S(=O)(=O)N3CCN(c4ccc([N+](=O)[O-])cc4)CC3)ccc2N1C(=O)C1CC1 (racemic)
0.24

New cases:
Please report IC50 for the following molecule: CC(=O)N1c2ccc(S(=O)(=O)N3CCN(c4ccccc4)CC3)cc2CC1C (racemic)
14.1

---

Quick reference for solubility among some compounds
Experiment: Solubility of the compound at pH 7.4
Format: physicochemical
Settings: buffer
// units = µg/mL; emit number, no label

Solved entries (count: 2):
Tell me solubility reported for CC(=O)N1c2ccc(S(=O)(=O)N3CCN(c4ccc(Cl)cc4)CC3)cc2CC1C (racemic)
0.1

Name the recorded solubility of the compound listed here: CC1Cc2cc(S(=O)(=O)N3CCN(c4ccccc4)CC3)ccc2N1C(=O)C1CC1 (racemic)
0.1

# next compound below
Note down solubility recorded for COc1ccc(N2CCN(S(=O)(=O)c3ccc4c(c3)CC(C)N4C(=O)C3CC3)CC2)cc1 (racemic)
0.1
